molecular target: SARS-CoV-2
measured quantity: Kd (nM)
# number only, unit nM dropped from output

Take a look at these entries with their results.
1H6 VHH-hFc (Fc fusion, also called 1H6-hFc; NCI-CoV-1H6 VHH-hFc fusion protein) AVQLVDSGGGSVQAGGSLNLSCVASGTTLRNGCMAWFRQVPGKEREVVAIIIRATSYTDYADSVKGRFTISQDNAKNTVYLQMKSLTPEDTATYYCAATLYRVNCAKREFDKWGQGTQVTVSS: 37
7A3 VHH-hFc (Fc fusion, also called 7A3-hFc; NCI-CoV-7A3 VHH-hFc fusion protein) QVQLVESGGGSVQPGGSLRLSCVVSGYTSSSRYMGWFRQVPGKGLEWVSGIKRDGTNTYYADSVKGRFTISQDNAKNTVYLQMNSLKPEDTAMYYCAAGSWYNQWGYSMDYWGKGTQVTVSS: 0.2
1B5 VHH-hFc (Fc fusion, also called 1B5-hFc; NCI-CoV-1B5 VHH-hFc fusion protein) DVQLVESGGGSVQAGGSLRLSCTGSRYTYSTYCMGWFRQAPGKEEEAVAIINSGGGEPYYGDSVKGRFTISQDRAKNTVYLQMDGLQPDDTAIYYCVAADSHNSRCYLGRSYVNYWGQGTQVTVSS: 0.1

Fill blank: measured Kd of the binder 8A2 VHH-hFc (Fc fusion, also called NCI-CoV-8A2 VHH-hFc) AVQLVDSGGGSVQAGGSLRLSCAASGYTYSICTMGWYRQAPGEGLEWVSGINADGSNTHYTDSVKGRFTISRDNAKKTLYLQMNSLKPEDTAIYYCAAHGTYDKYAPCGGFAGTYTYWGQGTQVTVSS is ____.
0.26
